Listed compounds paired with reported Hypotensive effect Dur.
system: Mean Arterial Blood Pressure in Conscious Rats; assay: Effect on mean arterial blood pressure in conscious rats (oral); assay type: in vivo, rat (male Sprague-Dawley); details: 10 mg/kg, time to recover to 5% of maximal decrease
Respond numerically; units are min and should not be typed.

{"compound": "CCC(=CC(CNC(=O)c1nc[nH]c1C)=NO)C(C)[N+](=O)[O-] (single isomer, unassigned)", "unit-tag": "min", "Hypotensive effect Dur.": 52.3}

Returns the measured Hypotensive effect Dur. for the input compound. Input: CCC(=CC(CNC(=O)c1cccnc1C)=NO)C(C)[N+](=O)[O-] (single isomer, unassigned)
108.0

Returns the measured Hypotensive effect Dur. for the input compound. Input: CCC(=CC(CNC(C)=O)=NO)C(C)[N+](=O)[O-] (single isomer, unassigned)
83.9

Just for reference, patent US5691366A is where these values come from.
